target: V560D/N822K (Homo sapiens, UniProt P10721, N822K/V560D); construct: V5 (vector-encoded); experiment: CHO K1 phospho-KIT ELISA; conditions: transient transfected CHO K1 cells, phospho-c-KIT (Tyr719), read-out: KIT kinase domain mutations (primary/secondary): V560D / N822K
Sequence (P10721 26-976 V560D/N822K): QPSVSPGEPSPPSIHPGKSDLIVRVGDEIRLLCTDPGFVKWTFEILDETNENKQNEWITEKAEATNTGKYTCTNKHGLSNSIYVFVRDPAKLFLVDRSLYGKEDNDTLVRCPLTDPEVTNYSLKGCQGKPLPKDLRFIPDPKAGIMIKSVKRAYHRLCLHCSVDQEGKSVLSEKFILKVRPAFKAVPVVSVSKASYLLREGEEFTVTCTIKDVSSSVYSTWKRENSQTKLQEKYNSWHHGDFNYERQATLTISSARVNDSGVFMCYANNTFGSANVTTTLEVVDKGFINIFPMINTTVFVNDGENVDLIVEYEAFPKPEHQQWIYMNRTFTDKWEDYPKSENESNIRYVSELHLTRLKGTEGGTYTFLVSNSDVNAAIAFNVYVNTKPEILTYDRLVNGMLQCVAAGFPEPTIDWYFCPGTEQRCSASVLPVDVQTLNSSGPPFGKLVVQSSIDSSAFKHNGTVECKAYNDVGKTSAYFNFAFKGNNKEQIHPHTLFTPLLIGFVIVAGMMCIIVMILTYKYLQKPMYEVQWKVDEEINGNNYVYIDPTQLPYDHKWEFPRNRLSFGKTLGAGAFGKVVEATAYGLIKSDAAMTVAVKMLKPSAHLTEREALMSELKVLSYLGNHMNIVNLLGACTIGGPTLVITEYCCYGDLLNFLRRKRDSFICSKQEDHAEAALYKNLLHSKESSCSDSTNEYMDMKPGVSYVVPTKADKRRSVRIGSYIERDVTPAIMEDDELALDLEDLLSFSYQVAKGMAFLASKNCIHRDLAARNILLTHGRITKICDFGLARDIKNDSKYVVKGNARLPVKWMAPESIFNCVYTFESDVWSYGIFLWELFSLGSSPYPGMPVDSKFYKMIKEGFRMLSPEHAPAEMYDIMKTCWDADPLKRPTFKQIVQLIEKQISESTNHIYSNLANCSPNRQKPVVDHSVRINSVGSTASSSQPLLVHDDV
quantityName: IC50

{"smilesText": "CCn1c(=O)c(-c2cc(NC(=O)Nc3ccccc3)c(F)cc2C)cc2cnc(NC)cc21", "IC50": "10 to 100 nM"}

Consider the additional molecule presented here.
Quick note, IC50 for `CCn1c(=O)c(-c2cc(NC(=O)Nc3csc4ccccc34)c(F)cc2C)cc2cnc(NC)cc21` landed at < 10 nM

Recorded values, source patent EP3722296B1.
